# assay text: Inhibition of gamma-secretase-mediated cleavage of human APP Swedish and London mutation expressed in HEK293 cells assessed as reduction in amyloid beta40 production after 4 hrs by ECL technology
# Format: cell-based
Give measured pIC50 for each item. Keep answers brief.
One number for each entry, as −log10 of the molar value.

Example entries and their recorded answers appear below.
CN(C)S(=O)(=O)NC[C@@H]1CCC[C@@]2(S(=O)(=O)c3ccc(Cl)cc3)c3c(F)ccc(F)c3OC[C@@H]12
8.70
O=S(=O)(NC[C@@H]1CCC[C@@]2(S(=O)(=O)c3ccc(Cl)cc3)c3c(F)ccc(F)c3OC[C@@H]12)N1CCCC1
8.30
O=S(=O)(N(C[C@@H]1CCC[C@@]2(S(=O)(=O)c3ccc(C(F)(F)F)cc3)c3c(F)ccc(F)c3OC[C@@H]12)C1CC1)C(F)(F)F
7.82
CCN(C[C@@H]1CCC[C@@]2(S(=O)(=O)c3ccc(C(F)(F)F)cc3)c3c(F)ccc(F)c3OC[C@@H]12)S(=O)(=O)C(F)(F)F
7.38
CN1CCN(C[C@@H]2CCC[C@@]3(S(=O)(=O)c4ccc(C(F)(F)F)cc4)c4c(F)ccc(F)c4OC[C@@H]23)S1(=O)=O
7.64
CCS(=O)(=O)NC[C@@H]1CCC[C@@]2(S(=O)(=O)c3ccc(Cl)cc3)c3c(F)ccc(F)c3OC[C@@H]12
8.40
NS(=O)(=O)NC[C@@H]1CCC[C@@]2(S(=O)(=O)c3ccc(C(F)(F)F)cc3)c3c(F)ccc(F)c3OC[C@@H]12
8.22
CC(C)S(=O)(=O)NC[C@@H]1CCC[C@@]2(S(=O)(=O)c3ccc(Cl)cc3)c3c(F)ccc(F)c3OC[C@@H]12
7.92
CCN(C[C@@H]1CCC[C@@]2(S(=O)(=O)c3ccc(Cl)cc3)c3c(F)ccc(F)c3OC[C@@H]12)S(C)(=O)=O
7.92
CN(C)S(=O)(=O)NC[C@@H]1CCC[C@@]2(S(=O)(=O)c3ccc(C(F)(F)F)cc3)c3c(F)ccc(F)c3OC[C@@H]12
7.90

Give one value of pIC50 per listed compound.
1. O=S(=O)(NC[C@@H]1CCC[C@@]2(S(=O)(=O)c3ccc(Cl)cc3)c3c(F)ccc(F)c3OC[C@@H]12)C(F)(F)F
2. CS(=O)(=O)NC[C@@H]1CCC[C@@]2(S(=O)(=O)c3ccc(Cl)cc3)c3c(F)ccc(F)c3OC[C@@H]12
3. O=S(=O)(NC[C@@H]1CCC[C@@]2(S(=O)(=O)c3ccc(Cl)cc3)c3c(F)ccc(F)c3OC[C@@H]12)N1CCOCC1
4. CCS(=O)(=O)NC[C@@H]1CCC[C@@]2(S(=O)(=O)c3ccc(C(F)(F)F)cc3)c3c(F)ccc(F)c3OC[C@@H]12

## Output
7.74
8.70
8.22
8.26
